Data origin, for the record: the supplement of paper PMC5579334

Test system: HS-PSS
Assay details: relative IC50 (inflection point of fitted dose-response curve, CellTiter-Glo viability, 72 h; top asymptote may be below 50% inhibition); higher = less potent
Would you please tag the item condition met when its relative IC50 is 0.3 µM or above, and condition not met when it is below?

# count of solved cases: 2
| Compound | Label value |
| --- | --- |
| COc1cccc(OCCCN)c1-c1cc(Nc2cnc(C#N)cn2)n[nH]1 [Prexasertib] | condition met |
| CC[C@@]1(O)C(=O)OCc2c1cc1n(c2=O)Cc2cc3ccccc3nc2-1 [Camptothecin] | condition not met |

Exercise: Given the entry Nc1cccc2c1C(=O)N(C1CCC(=O)NC1=O)C2=O (stereo not drawn) [Pomalidomide] , answer whether its relative IC50 meets or surpasses 0.3 µM.
Solution: condition met

Exercise: Item CN(C)Cc1c(C(=O)NCCOc2ccc(C(=O)NO)cc2)oc2ccccc12 [Abexinostat] with relative IC50 of 0.3 µM or above?
Solution: condition met

Exercise: Is relative IC50 at least 0.3 µM? Consider CC1(COc2ccc3c(c2)ncn3-c2ccc3cccc(N4CCC(N)CC4)c3n2)COC1 [Crenolanib]
Solution: condition met

====

Tested on: HSC1
Assay details: relative IC50 (inflection point of fitted dose-response curve, CellTiter-Glo viability, 72 h; top asymptote may be below 50% inhibition); higher = less potent
Parameter measured: relative IC50

Exercise: Consider the compound shown here: `Nc1ccn([C@@H]2O[C@H](CO)[C@@H](O)C2(F)F)c(=O)n1` What is its recorded relative IC50?
Solution: 2.2 nM

Exercise: Need relative IC50, item `CCCCCCCCc1ccc(CCC(N)(CO)CO)cc1`
Solution: 2150 nM

Exercise: Query (compound): `Oc1ncnc2[nH]ncc12` ; field requested: relative IC50
Solution: > 10000 nM

Exercise: # lookup: relative IC50 of `O=[N+]([O-])c1ccc2c(c1)S(=O)(=O)C=C2`
Solution: 1880 nM

Exercise: Which relative IC50 is reported for this compound? `COC(=O)C[C@](O)(CCCC(C)(C)O)C(=O)O[C@@H]1C(OC)=C[C@]23CCCN2CCc2cc4c(cc2[C@H]13)OCO4`
Solution: 51.7 nM

Exercise: I have this compound here, `CC(C)C[C@H](NC(=O)[C@H](CCc1ccccc1)NC(=O)CN1CCOCC1)C(=O)N[C@@H](Cc1ccccc1)C(=O)N[C@@H](CC(C)C)C(=O)[C@@]1(C)CO1` , and I need its recorded relative IC50.
Solution: 11.5 nM

Exercise: Need relative IC50 of `Cc1c(Cn2c(C)nc3c(C(=O)O)cc(N4CCOCC4)cc32)cccc1C(F)(F)F` , thanks.
Solution: > 10000 nM

Exercise: Sample `CN1CCN(CCOc2cc(OC3CCOCC3)c3c(Nc4c(Cl)ccc5c4OCO5)ncnc3c2)CC1` — what was its relative IC50?
Solution: 452 nM

Exercise: GET /values?readout=relative IC50&item= `Cc1ccc(NC(=O)c2ccc(CN3CCN(C)CC3)cc2)cc1Nc1nc(-c2cccnc2)cs1`
Solution: 3400 nM

Exercise: Which relative IC50 is listed for `Cn1c(=O)c(F)c(Nc2ccc(I)cc2F)c2c(=O)n(C[C@@H](O)CO)cnc21` ?
Solution: 97.3 nM

Exercise: Please report the recorded relative IC50 for `NC(=O)Nc1cc(-c2cccc(F)c2)sc1C(=O)N[C@H]1CCCNC1` .
Solution: 161 nM

Exercise: Which relative IC50 value belongs to `Clc1ccc(Nc2nnc(Cc3ccncc3)c3ccccc23)cc1` ?
Solution: > 10000 nM

Exercise: # relative IC50 lookup, item `COC1=CC(c2cc3ccccc3[nH]2)=N/C1=C\c1[nH]c(C)cc1C`
Solution: 1370 nM

Exercise: Sample `CC(=O)Nc1cccc(-n2c(=O)n(C3CC3)c(=O)c3c(Nc4ccc(I)cc4F)n(C)c(=O)c(C)c32)c1` — what was its relative IC50?
Solution: 10.6 nM

Exercise: So what does the record say about relative IC50 for `CC(C)(C)c1nc(-c2cccc(NS(=O)(=O)c3c(F)cccc3F)c2F)c(-c2ccnc(N)n2)s1` ?
Solution: 220 nM

Exercise: Which measured relative IC50 value corresponds to `CCN(CCO)CCCOc1ccc2c(Nc3cc(CC(=O)Nc4cccc(F)c4)[nH]n3)ncnc2c1` ?
Solution: 22.3 nM

Exercise: For O=C(O)CCCCC(CCSCc1ccccc1)SCc1ccccc1 (configuration not stated) , what is its reported relative IC50?
Solution: > 10000 nM

====

Below, each of the molecules is paired with its reported drug sensitivity score value.
System: STS26T
Assay details: drug sensitivity score (DSS, CellTox-Green cytotoxicity, 72 h) (DSS (dimensionless)); higher = more cytotoxic; extreme values may be limits of the assay
# answer = number (no unit)

As a guide, the following entries are already answered.
| Molecule | Target of assay | drug sensitivity score |
| --- | --- | --- |
| CNC(=O)c1cc(Oc2ccc(NC(=O)Nc3ccc(Cl)c(C(F)(F)F)c3)c(F)c2)ccn1 [Regorafenib] (max concentration tested 10000 nM) | STS26T | 0.529 |
| CN(C)C/C=C/C(=O)Nc1cc2c(Nc3ccc(F)c(Cl)c3)ncnc2cc1O[C@H]1CCOC1 [Afatinib] (max concentration tested 1000 nM) | STS26T | 0 |
| Sc1ncnc2nc[nH]c12 [Mercaptopurine] (max concentration tested 10000 nM) | STS26T | 0.135 |
| CS(=O)(=O)c1ccc(C(=O)Nc2ccc(Cl)c(-c3ccccn3)c2)c(Cl)c1 [Vismodegib] (max concentration tested 10000 nM) | STS26T | 0 |
| Cc1cnc(NC(=O)Nc2cc(Br)c(C)cc2OC[C@@H]2CNCCO2)cn1 [Rabusertib] (max concentration tested 1000 nM) | STS26T | 1.88 |
| CCCS(=O)(=O)Nc1ccc(F)c(C(=O)c2c[nH]c3ncc(-c4ccc(Cl)cc4)cc23)c1F [Vemurafenib] (max concentration tested 10000 nM) | STS26T | 2.82 |

Exercise: Which drug sensitivity score value belongs to Cn1cc(C[C@@H](N)C(=O)O)c2ccccc21 [1-methyl-D-tryptophan aq] (max concentration tested 5000 nM) ?
Solution: 0.0551

Exercise: Reported drug sensitivity score, molecule Cc1cc2c(F)c(Oc3ncnn4cc(OC[C@@H](C)O)c(C)c34)ccc2[nH]1 [Brivanib] (max concentration tested 1000 nM) : ____
Solution: 0

====

System: HS-Sch-2
Assay details: % inhibition of CellTiter-Glo viability at highest tested concentration (72 h), relative to DMSO and benzethonium chloride controls; higher = more inhibition
Catalogue of % inhibition values
Quick reminder: number only, in %, skip the unit.

// worked examples, % inhibition included
| Compound | Unit of measure | % inhibition |
| --- | --- | --- |
| N.N.[Cl][Pt][Cl] [Cisplatin] (max concentration tested 100000 nM) | % | 100 |
| COc1cc(Nc2c(C#N)cnc3cc(OCCCN4CCN(C)CC4)c(OC)cc23)c(Cl)cc1Cl [Bosutinib] (max concentration tested 10000 nM) | % | 100 |

Attention now shifts to the item below.
Exercise: State its % inhibition on HS-Sch-2: CNC(=O)c1cc(Oc2ccc(NC(=O)Nc3ccc(Cl)c(C(F)(F)F)c3)cc2)ccn1 [Sorafenib] (max concentration tested 1000 nM)
Solution: -11.4

====

System: HSC2 (primary human Schwann cells)
Assay details: drug sensitivity score (DSS, CellTiter-Glo viability, 72 h) (DSS (dimensionless)); higher = more sensitive; extreme values may be limits of the assay
Please mark yes if the recorded drug sensitivity score is equal to or greater than 20, and no if it falls below.

Worked examples, 5 compounds total:
| Compound | Label value |
| --- | --- |
| Cn1c(=O)n(-c2ccc(C(C)(C)C#N)cc2)c2c3cc(-c4cnc5ccccc5c4)ccc3ncc21 [Dactolisib] (max concentration tested 1000 nM) | no |
| CC1=C2C[C@H]3[C@@H](CC=C4C[C@@H](O)CC[C@@]43C)[C@@H]2CC[C@]12O[C@@H]1C[C@H](C)CN[C@H]1[C@H]2C [Cyclopamine] (max concentration tested 10000 nM) | no |
| CC(C)C[C@H](NC(=O)[C@H](Cc1ccccc1)NC(=O)c1cnccn1)B(O)O [Bortezomib] (max concentration tested 1000 nM) | yes |
| CS(=O)(=O)c1ccc(C2=C(c3ccccc3)C(=O)OC2)cc1 [Rofecoxib] (max concentration tested 10000 nM) | no |
| Nc1ncn([C@H]2C[C@H](O)[C@@H](CO)O2)c(=O)n1 [Decitabine] (max concentration tested 10000 nM) | no |

Shift focus to the following entry.
Exercise: Given O=C(Nc1cccnc1)N1CCC(Cc2cccc(Oc3ccc(C(F)(F)F)cn3)c2)CC1 [PF-3845] (max concentration tested 10000 nM) , state whether its drug sensitivity score is at least 20.
Solution: no

====

Tested on: ST8814
Assay details: drug sensitivity score (DSS, CellTiter-Glo viability, 72 h) (DSS (dimensionless)); higher = more sensitive; extreme values may be limits of the assay
Parameter measured: drug sensitivity score
Form: value (number only, do not type unit).

# annotated cases, reported drug sensitivity score shown
| Compound | drug sensitivity score |
| --- | --- |
| Cc1ccc(-n2nc(C(C)(C)C)cc2NC(=O)Nc2ccc(OCCN3CCOCC3)c3ccccc23)cc1 [Doramapimod] (max concentration tested 10000 nM) | 0 |
| CN(C)CCN1C(=O)c2cccc3cc(N)cc(c23)C1=O [Amonafide] (max concentration tested 10000 nM) | 8.9 |
| O=C(/C=C/c1cccnc1)NCCCCC1CCN(C(=O)c2ccccc2)CC1 [Daporinad] (max concentration tested 1000 nM) | 24.1 |
| OC[C@H]1O[C@@H](n2cnc3c2N=CNC[C@H]3O)C[C@@H]1O [Pentostatin] (max concentration tested 10000 nM) | 0 |

Exercise: Fill in: drug sensitivity score of CN(N=O)C(=O)N[C@@H]1[C@@H](O)[C@H](O)[C@@H](CO)O[C@@H]1O [Streptozocin] (max concentration tested 10000 nM) is ___
Solution: 0

Exercise: Entry CNC(=O)c1ccccc1Sc1ccc2c(/C=C/c3ccccn3)n[nH]c2c1 [Axitinib] (max concentration tested 10000 nM) has what drug sensitivity score?
Solution: 5.17

Exercise: Which drug sensitivity score value is on record for C[C@@H]1CCN(C(=O)CC#N)C[C@@H]1N(C)c1ncnc2[nH]ccc12 [Tofacitinib] (max concentration tested 5000 nM) ?
Solution: 0

Exercise: Could you tell me which drug sensitivity score is on file for O=P1(NCCCl)OCCCN1CCCl (configuration not stated) [Ifosfamide] (max concentration tested 10000 nM) ?
Solution: 0

Exercise: Please look up its drug sensitivity score: COc1cc([C@@H]2c3cc4c(cc3[C@@H](O[C@@H]3O[C@@H]5CO[C@@H](C)O[C@H]5[C@H](O)[C@H]3O)[C@H]3COC(=O)[C@H]23)OCO4)cc(OC)c1O [Etoposide] (max concentration tested 10000 nM)
Solution: 5.79

Exercise: Fill blank: measured drug sensitivity score of the compound N#Cc1ccc(COC[C@H]2O[C@@H](n3c(NCc4ccc(Cl)c(Cl)c4)nc4c(N)ncnc43)[C@H](O)[C@@H]2O)cc1 (max concentration tested 10000 nM) is ____.
Solution: 0

Exercise: Fill in the blank: the reported drug sensitivity score of COc1cc2c(Oc3ccc4[nH]c(C)cc4c3F)ncnc2cc1OCCCN1CCCC1 [Cediranib] (max concentration tested 1000 nM) is ____.
Solution: 0

Exercise: Given the entry Nc1ncn([C@@H]2O[C@H](CO)[C@@H](O)[C@H]2O)c(=O)n1 [Azacitidine] (max concentration tested 10000 nM) , report its measured drug sensitivity score.
Solution: 0.0452
